tgt: human Nav1.7 (Homo sapiens, UniProt Q15858, W1161R)
Construct: expressed in transfected cells
Assay type: cell-based
# maps each entry to its pIC50
Please keep in mind that pIC50 is minus log10 of the molar concentration; only the number is needed.

Previously resolved entries follow.
Please look up its pIC50: GPCCNCSSKWCRDHSRCCGSAPAPAPAPAPAPAPAPAPAPGSQCQKWMQTCDRERKCCEGFVCTLWCRKKLW [NV1D3795]
7.00

Query (sequence): GPCCNCSSKWCRDHSRCCGRGSGGGGSAPAPAPAPAPAPAPAPAPAPGGGGSGSQCQKWMQTCDRERKCCEGFVCTLWCRKKLW [NV1D3830] ; field requested: pIC50
7.05

What does the record list as pIC50 for GPQCQKWMQTCDRERKCCEGFVCTLWCRKKLWGSGGGGSAPAPAPAPAPAPAPAPAPAPGGGGSGSCCNCSSKWCRDHSRCCGR [NV1D3828] ?
7.06

Reported pIC50, sequence GPQCQKWMQTCDAERKCCEGFVCRLWCKKKLWGSAPAPAPAPAPAPAPAPAPAPGSCCNCSSKWCRDHSRCCGR [NV1D3259] : ____
7.26

Given the sequence GPQCQKWMQTCDRERKCCEGFVCTLWCRKKLWGSAPAPAPAPAPGSCCNCSSKWCRDHSRCC [NV1D3799] , what is its reported pIC50?
7.30

Further cases:
I have this sequence here, GPGWCGDPGATCGKLRLYCCSGFCDAYTKTCKDKSSAGGGGSAPAPAPAPAPAPAPAPAPAPAPAPAPAPAPGGGGSQCQKWMQTCDRERKCCEGFVCTLWCRKKLW [NV1D3824] , and I need its recorded pIC50.
6.96

Entry GPCCNCSSKWCRDHSRCCGRGSAPAPAPAPAPGSQCQKWMQTCDAERKCCEGFVCRLWCKKKLW [NV1D3256] : reported pIC50 = ?
7.25

Please report the recorded pIC50 for GPCCNCSSKWCRDHSRCCGSAPAPAPAPAPGSQCQKWMQTCDRERKCCEGFVCTLWCRKKLW [NV1D3796] .
6.96

Fill in: pIC50 of GPCCNCSSKWCRDHSRCCGSAPAPAPAPAPAPAPAPAPAPGSQCQKWMQTCDAERKCCEGFVCRLWCKKKLW [NV1D3262] is ___
7.05

Sample GPSHSNTQTLAKAPEHTGAPAPAPAPAPAPAPAPAPAPQCQKWMQTCDRERKCCEGFVCTLWCRKKLW [NV1D3774] — what was its pIC50?
7.05

Can you look up the measured pIC50 of GPQCQKWMQTCDRERKCCEGFVCTLWCRKKLWGSAPAPAPAPAPAPAPAPAPAPGSCCNCSSKWCRDHSRCCGR [NV1D3798] for me?
7.02

---

tgt: human Nav1.5 (Homo sapiens)
measurement_context: human, pH 7.4
No end group written: not given here.
quantity_measured: IC50

Report IC50 for GPSCQKWMQTCDAERKCCEGFVCRLWCKKKLW-OH (cysteine pairing not given here) [NV1D2773] tested on human Nav1.5 (Homo sapiens).
> 3 µM

---

tgt: human Nav1.7 (Homo sapiens, UniProt Q15858, W1161R)
Construct: expressed in transfected cells
Type: cell-based
pIC50: −log10 of the molar value.
Decision: pIC50 compared against 7; not below it gives 1, below it gives -1.

Please tell me: is the sequence GPQCQKWMQTCDRERKCCEGFVCTLWCRKKLWGGGGSAPAPAPAPAPAPAPAPAPAPAPAPAPAPAPGGGGSGWCGDPGATCGKLRLYCCSGFCDAYTKTCKDKSSA [NV1D3825] at or over 7 in terms of pIC50?
-1

Continuing:
Confirm if pIC50 reported for the sequence GPQCQKWMQTCDRERKCCEGFVCTLWCRKKLWGSAPAPAPAPAPGSCCNCSSKWCRDHSRCCGR [NV1D3800] is 7 or above.
1

---

tgt: human Nav1.5 (Homo sapiens, UniProt Q14524)
Sequence (Q14524 whole entry): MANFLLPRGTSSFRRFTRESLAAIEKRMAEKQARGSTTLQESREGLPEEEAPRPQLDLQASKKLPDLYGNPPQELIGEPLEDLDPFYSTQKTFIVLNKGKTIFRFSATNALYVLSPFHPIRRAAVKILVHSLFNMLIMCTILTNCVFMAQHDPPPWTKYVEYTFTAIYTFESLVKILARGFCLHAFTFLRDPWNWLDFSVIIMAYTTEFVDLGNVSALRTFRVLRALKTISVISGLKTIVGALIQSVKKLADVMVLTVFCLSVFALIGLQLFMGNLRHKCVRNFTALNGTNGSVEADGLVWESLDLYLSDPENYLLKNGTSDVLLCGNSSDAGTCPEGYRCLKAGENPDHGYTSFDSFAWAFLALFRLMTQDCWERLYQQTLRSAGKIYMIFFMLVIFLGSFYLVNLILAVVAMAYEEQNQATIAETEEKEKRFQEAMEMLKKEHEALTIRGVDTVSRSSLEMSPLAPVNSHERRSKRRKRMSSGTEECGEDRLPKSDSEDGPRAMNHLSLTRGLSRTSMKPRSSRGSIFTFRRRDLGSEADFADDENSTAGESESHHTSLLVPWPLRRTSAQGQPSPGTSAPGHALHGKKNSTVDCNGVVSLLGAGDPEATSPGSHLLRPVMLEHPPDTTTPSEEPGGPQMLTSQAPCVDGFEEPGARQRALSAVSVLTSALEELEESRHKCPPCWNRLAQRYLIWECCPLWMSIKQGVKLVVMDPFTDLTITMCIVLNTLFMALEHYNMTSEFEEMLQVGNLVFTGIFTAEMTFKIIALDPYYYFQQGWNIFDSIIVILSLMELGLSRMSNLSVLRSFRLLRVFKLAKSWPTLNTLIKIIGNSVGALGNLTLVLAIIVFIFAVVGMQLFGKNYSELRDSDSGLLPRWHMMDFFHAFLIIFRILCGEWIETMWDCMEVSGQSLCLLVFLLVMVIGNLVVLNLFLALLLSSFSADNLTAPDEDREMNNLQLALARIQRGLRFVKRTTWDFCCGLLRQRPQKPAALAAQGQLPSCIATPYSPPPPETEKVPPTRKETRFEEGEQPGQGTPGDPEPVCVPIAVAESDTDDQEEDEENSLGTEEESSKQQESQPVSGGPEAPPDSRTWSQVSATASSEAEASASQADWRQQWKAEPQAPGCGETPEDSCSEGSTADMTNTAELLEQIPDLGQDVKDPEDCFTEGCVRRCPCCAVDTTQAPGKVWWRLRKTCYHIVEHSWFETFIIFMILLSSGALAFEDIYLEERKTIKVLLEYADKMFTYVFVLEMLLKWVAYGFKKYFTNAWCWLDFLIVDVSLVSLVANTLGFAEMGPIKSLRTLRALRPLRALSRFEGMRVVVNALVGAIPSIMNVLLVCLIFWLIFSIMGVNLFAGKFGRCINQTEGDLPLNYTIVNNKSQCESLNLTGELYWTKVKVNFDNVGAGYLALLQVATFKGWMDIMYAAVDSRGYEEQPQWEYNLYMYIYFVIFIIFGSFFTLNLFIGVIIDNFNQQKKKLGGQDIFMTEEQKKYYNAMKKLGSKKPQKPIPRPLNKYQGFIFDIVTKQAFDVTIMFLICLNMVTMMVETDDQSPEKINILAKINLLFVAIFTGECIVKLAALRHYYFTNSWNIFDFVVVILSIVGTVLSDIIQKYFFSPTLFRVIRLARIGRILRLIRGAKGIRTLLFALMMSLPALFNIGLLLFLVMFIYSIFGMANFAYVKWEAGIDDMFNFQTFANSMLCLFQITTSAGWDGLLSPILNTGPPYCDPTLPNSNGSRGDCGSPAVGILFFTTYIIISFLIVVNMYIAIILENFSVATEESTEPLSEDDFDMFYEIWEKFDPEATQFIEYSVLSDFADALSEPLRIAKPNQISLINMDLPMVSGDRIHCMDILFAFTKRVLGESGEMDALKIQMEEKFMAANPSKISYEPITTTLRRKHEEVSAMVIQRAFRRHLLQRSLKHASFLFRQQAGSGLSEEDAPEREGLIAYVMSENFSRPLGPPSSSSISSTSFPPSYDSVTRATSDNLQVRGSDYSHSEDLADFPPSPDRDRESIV
pIC50: −log10 of the molar value.
quantity_measured: pIC50

Any idea what its pIC50 is? The substance is GPYCQKWMWTCDSERKCCEGMVCRLWCKKKLW-COOH [NV1D12, reference compound]
< 6.00

---

Tested on: C57Bl/6 mice
assay_details: CFA model of inflammatory pain, thermal hyperalgesia (Hargreaves test)
Format: in vivo
measurement_context: CFA model, mice, 1824 μg/day/mouse by subcutaneous osmotic mini-pump; mean±s.e.m. (n)
Method: Male C57Bl/6 mice (24-26 g), ordered from Charles River and housed individually, were used for this study. This box consists of a chamber with a raised glass floor maintained at a constant temperature (27° C.). The thermal nociceptive stimulus originates from a projection bulb light beam below the glass surface. […] Data are represented as mean±s.e.m. […] Hotplate and MPE % data were analyzed by one-way ANOVA followed by Bonferroni's multiple comparison test.
No end group written: not given here.
Overview of reported Thermal MPE % across a group of substances:

What does the data say about its Thermal MPE %? Entry: GPQCQKWMQTCDAERKCCEGFVCRLWCKKKLW-OH (cysteine pairing not given here) [NV1D2775]
85 ± 6 %

Others:
Fill in: Thermal MPE % of GPQCQKWMQTCDRTRKCCEGFVCTLWCRKKLW-NH2 [NV1D3368-NH2] is ___
55 ± 15 (6) %

Which value of Thermal MPE % has been reported for GPQCQKWMQTCDRERKCCEGFVCTLWCRKKLW-OH (cysteine pairing not given here) [NV1D3034] in the records?
50 ± 6 (8) %

Field request: Thermal MPE % | item: GPQCQKWMQTCDRTRKCCEGFVCTLWCRKKLW-OH (cysteine pairing not given here) [NV1D3368]
47 ± 6 (8) %

Recorded Thermal MPE % of GPQCQKWMQTCDRERKCCEGFVCTLWCRKKLW-NH-methyl [NV1D3034-NH-methyl] , please.
49 ± 17 (6) %

---

tgt: human Nav1.7 (Homo sapiens, UniProt Q15858, W1161R)
Construct: expressed in transfected cells
Assay type: cell-based
quantity_measured: pIC50
pIC50 here: minus log base 10 of the concentration, concentration in moles per litre.

Any idea what its pIC50 is? The sequence is GPCRTIGPSVCAPAPAPAPAPAPAPAPAPAPQCQKWMQTCDRERKCCEGFVCTLWCRKKLW [NV1D3832]
7.05

Query: pIC50; subject: GPCCNCSSKWCRDHSRCCGRGSAPAPAPAPAPAPAPAPAPAPGSQCQKWMQTCDRERKCCEGFVCTLWCRKKLW [NV1D3793]
7.19

Further cases:
// returns reported pIC50 for input GPCCNCSSKWCRDHSRCCGRGSAPAPAPAPAPAPAPAPAPAPGSQCQKWMQTCDAERKCCEGFVCRLWCKKKLW [NV1D3260]
7.24

---

tgt: human Nav1.7 (Homo sapiens, UniProt Q15858, W1161R)
Construct: expressed in transfected cells
Assay type: cell-based
Reported IC50 is given for each of the following sequences.
Please state the figure in nM; there is no need to write the unit.

Which value of IC50 has been reported for GPQCQKWMQTCDRERKCCEGFVCTLWCRKKLWGSAPAPAPAPAPAPAPAPAPAPGSCCNCSSKWCRDHSRCC [NV1D3797] in the records?
91.1

Entry GPGWCGDPGATCGKLRLYCCSGFCDSYTKTCKDKSSAGGGGSAPAPAPAPAPAPAPAPAPAPAPAPAPAPAPGGGGSQCQKWMQTCDRERKCCEGFVCTLWCRKKLW [NV1D3822] has what IC50?
74.2

// next entry
So what's the measured IC50 for this one? GPQCQKWMQTCDRERKCCEGFVCTLWCRKKLWGSGGGGSAPAPAPAPAPAPAPAPAPAPGGGGSGSCCNCSSKWCRDHSRCC [NV1D3829]
122
